Sourced from patent US20180105596A1

# tested_on: T1, recombinant His-Strep tagged human Tyro3 extracellular domain (human, UniProt Q06418 41-429)
# T1 construct: also called hTyro3 ECD; full Tyro3 ECD
# T1 sequence: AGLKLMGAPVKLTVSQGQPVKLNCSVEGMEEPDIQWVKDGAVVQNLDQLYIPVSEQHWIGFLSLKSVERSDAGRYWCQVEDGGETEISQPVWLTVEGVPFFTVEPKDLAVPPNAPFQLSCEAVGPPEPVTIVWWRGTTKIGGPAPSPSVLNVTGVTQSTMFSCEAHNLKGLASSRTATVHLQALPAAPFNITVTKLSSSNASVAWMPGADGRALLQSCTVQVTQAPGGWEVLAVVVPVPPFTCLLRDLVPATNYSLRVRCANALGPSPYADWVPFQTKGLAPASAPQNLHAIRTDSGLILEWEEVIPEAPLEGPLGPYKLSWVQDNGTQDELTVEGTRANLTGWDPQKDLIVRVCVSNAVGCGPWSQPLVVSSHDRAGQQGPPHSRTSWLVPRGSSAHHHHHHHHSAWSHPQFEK
# experiment_summary: BLI (Octet K2), 1:1 global fit; analyte concentration of this kobs not given
Task for the reader: assign each of the following binders its reported kobs.

Dear colleague, I am looking for the recorded kobs of the following binder: IgG2413 (antibody, V domains shown, also called IGX2413) VH: EVQLVQSGADVKKPGASLTISCQASGYTFTDYWISWVRQKPGKGLEWMGRIHTYQSSTRYGPSFQGHVTISADRSTATAYLQWRSLEASDTAMYYCVRHHSTTTANPYSSWGPGTLVTVSS VL: SYELTQPPSVSVSPGQTARITCSGDALPKKYAYWYQQKSGQAPVLVIYEDDKRLSGIPERFSGSSSGTMATLTISGAQVEDEADYYCYSTEINGNYAVFGGGTKLTVL
0.0342 s⁻¹

Could you tell me which kobs is on file for IgG2414 (antibody, V domains shown, also called IGX2414) VH: EVQLVQSGADVKKPGASLTISCQASGYTFTDYWISWVRQKPGKGLEWMGQINRHASNTMYGPSFQGHVTISADRSTATAYLQWRSLEASDTAMYYCVRSGGATSGGTIPEYYQHWGPGTLVTVSS VL: SYELTQPPSVSVSPGQTARITCSGDALPKKYAYWYQQKSGQAPVLVIYEDWKRASGIPERFSGSSSGTMATLTISGAQVEDEADYYCYSQERKGNYFVFGGGTKLTVL ?
0.0203 s⁻¹

Bench note: what kobs did IgG2711 (antibody, V domains shown, also called IGX2711) VH: EVQLVQSGADVKKPGASLTISCQASGYTFTDYWISWVRQKPGKGLEWMGQIRGQHSSTLYGPSFQGHVTISADRSTATAYLQWRSLEASDTAMYYCVRHGASTSGGTIPEYYQHWGPGTLVTVSS VL: SYELTQPPSVSVSPGQTARITCSGDALPKKYAYWYQQKSGQAPVLVIYEDAKRSSGIPERFSGSSSGTMATLTISGAQVEDEADYYCYSLSDSGNYFVFGGGTKLTVL show?
0.014 s⁻¹

Look up kobs: IgG2412 (antibody, V domains shown, also called IGX2412) VH: EVQLVQSGADVKKPGASLTISCQASGYTFTDYWISWVRQKPGKGLEWMGRIRPLLSHTMYGPSFQGHVTISADRSTATAYLQWRSLEASDTAMYYCVRSWLATSGGTIPEYYQHWGPGTLVTVSS VL: SYELTQPPSVSVSPGQTARITCSGDALPKKYAYWYQQKSGQAPVLVIYEDAKRVSGIPERFSGSSSGTMATLTISGAQVEDEADYYCYSASANGNYRVFGGGTKLTVL
0.0175 s⁻¹

What value of measured kobs is listed for IgG2410 (antibody, V domains shown, also called IGX2410) VH: EVQLVQSGADVKKPGASLTISCQASGYTFTDYWISWVRQKPGKGLEWMGQIVPRASRTNYGPSFQGHVTISADRSTATAYLQWRSLEASDTAMYYCVRPYFQTSGGTIPEYYQHWGPGTLVTVSS VL: SYELTQPPSVSVSPGQTARITCSGDALPKKYAYWYQQKSGQAPVLVIYEDEKRASGIPERFSGSSSGTMATLTISGAQVEDEADYYCYSQERNGNYAVFGGGTKLTVL ?
0.0145 s⁻¹
